The values you see were collected from patent US12459951B2.

# Test system: KRas wild type
# protocolDescription: Ras GTP Binding Domain Inhibition Assay (Ras Superfamily Assay)
# assaySetup: 20 μM compound, with SOS
measuredAttribute: KRas wild type + SOS: % inh.

# KRas wild type + SOS: % inh. (compound: COc1cnc(Nc2nc(-c3nccn3C)nn3cc(-c4ccn(C)n4)c(C)c23)nc1.Cl ) is A (A = 1-25% inhibition)

# KRas wild type + SOS: % inh. (compound: COc1cccc(Nc2nc(-c3nccn3C)nn3cc(-c4ccn(C(C)C)n4)c(-c4ccccc4)c23)n1 ) is A (A = 1-25% inhibition)

# KRas wild type + SOS: % inh. (compound: COCCNc1nc(-c2nccn2C)nn2cc(-c3cccc(OC)c3Cl)c(-c3ccccc3)c12 ) is 0 (0 = 0% inhibition)
